Where do these numbers come from? They come from patent US20250027068.

Collected Enzyme Activity Endpoint Assay: Fc values appear next to each entry.
# assay system: pooled human IgG (human IgG1, 2, 3 and 4)
Could you kindly put the unit after your number?

I'd like to know its Enzyme Activity Endpoint Assay: Fc. The protein in question is PRT-525 (protein) MITSVWTKGVTPPAKFTQGEDVFHAPYVANQGWYDITKTFNGKDNLLCGAATAGNMLHWWFDQNKEEIEAYLKKHPEKQKIIFNNQELFDLKAVINTKDSQTNSALFNYFKDKAFPNLSARRLGVFPDLVLDMFINGYYLNVYKTQTTDVNRTYQTKDRRGGIFDAVFTRGVQSKLLTERHDLKNKTLKEISDLIKQELTEGKALGLSHTYANVRINHVINLWGADFDSNGNLEAIYVTDSDTNASIGMKKYFVGVNSAGKVAISAKEIKEDNIGAQVLGLFTLSTGQDIWNQTNLEHHHHHH 386 ng/µL

Others:
I'd like to know its Enzyme Activity Endpoint Assay: Fc. The protein in question is PRT-571 (protein) MANQEIRYSEETPSTITSVWTKGVTPPTQFIQNEDVLHAPYIANQGWYDITKTFNGKDDLLCGAATAGNMLHWWFDQNKEQIENYLKKHPEKQKINFNGEQMFDVKEAIDTKDSQTDSALFEYFKDKAFPYLSTKHLGVFPDHVIDMFINGYRLSLTNHGPTPVKRGTKDPRGGIFDAVFTRGDQSKLLTSRHDFKEKTLNEISDLIKQELTEGKALGLSHTYANVRINHVINLWGADFNAEGNLEAIYVTDSDSNASIGMKKYYVGVNAAGKVAISAKEIEGDNIGAQVLGLFTLSTGQDIWNQTNLEHHHHHH 383 ng/µL
